ASSAYED_SYSTEM: UniProt:P00915
Sequence (P00915 whole entry): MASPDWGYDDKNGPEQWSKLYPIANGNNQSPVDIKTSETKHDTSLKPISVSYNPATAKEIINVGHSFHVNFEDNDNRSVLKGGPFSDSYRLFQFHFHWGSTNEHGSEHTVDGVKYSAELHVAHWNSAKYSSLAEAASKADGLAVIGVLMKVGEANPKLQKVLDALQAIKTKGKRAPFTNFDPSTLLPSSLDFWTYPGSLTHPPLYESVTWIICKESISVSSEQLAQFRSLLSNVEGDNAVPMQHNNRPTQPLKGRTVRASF
VALUE_KIND: Ki
Record the result as number plus unit.

A selection of reference data follows.
O=C(O)c1cc(O)cc(O)c1 [3,5-DIHYDROXYBENZOIC ACID] : 0.55 µM
O=C(O)c1ccc(O)c(O)c1 : 1.08 µM
COc1ccc(C(=O)O)cc1OC : 6.83 µM

// below: Ki requested for another compound
Fill blank: measured Ki of the compound O=C(O)c1cccc(O)c1 [3-HYDROXYBENZOIC ACID] is ____. 2.37 µM
